Data provenance is patent US8183238B2.

RUN DESCRIPTION: Prodrug in vivo pharmacokinetics in dogs (plasma, LC-MS-MS)
Parameters: species or system Dog (Beagle)
APPLIED CONDITIONS: Beagle, dog, plasma, po, 1 mg/kg, Example 72 in dog plasma after oral Example 72 (1 mg/kg active); Dog 1
ASSAY READOUT: half-life (h)
Expressed in h, but write only the number.

Briefly, half-life measured for "CN(C)C(=O)ON1C(=O)[C@@H](N)Cc2cc(Oc3ccccc3)ccc21" : 2.31

---

RUN DESCRIPTION: Prodrug in vivo pharmacokinetics in monkeys (plasma, LC-MS-MS)
Parameters: species or system Monkey (Cynomolgus)
APPLIED CONDITIONS: Cynomolgus, cynomolgus monkey, plasma, po, 10 mg/kg, Example 4 in monkey plasma after oral Example 4 (10 mg/kg active); Monkey 4; read-out: AUC Extrap
Protocol: Test substances (Examples 4 and 71-73) were administered by oral gavage to groups of two monkeys. Blood samples were taken at various times after administration and submitted to analysis for the parent drug (Example 4 and Example 71) and pro-drug (Examples 72 and 73) using an LC-MS-MS assay. […] Pharmacokinetic parameters derived from the plasma analytical data were determined using Watson LIMS 7.2.003 (Thermo Fisher Scientific, Waltham, Mass.). […]
ASSAY READOUT: AUC (ng·h/mL)
Expressed in ng·h/mL, but write only the number.

Briefly, AUC measured for "N[C@H]1Cc2ccccc2N(O)C1=O" : 163
